This section presents binders with their documented RAMPO Score values.
- target: T1, His-tagged P3028 (human, also: His-tag, terminus and sequence not given here)
- T1 construct: in solution at 0.5 ug/mL over the peptide cards; found with anti-His-tag antibody and rabbit anti-mouse peroxidase (rampo); also called PGE73; not shown: His-tag
- T1 peptide: VFDEFKPLVEEPQNLIK
- protocol-details: PEPSCAN chip ELISA, His-P3028 in solution;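 also: score is the raw OD at 405 nm from peroxidase colour with ABTS, imaged by CCD camera before and after staining, with wells showing air bubbles set to zero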
No end group written: not given here.
The reply should be a number in rampo score, with the unit left off.

# count of solved cases: 3
KQLDTFFVKLSLFTER [SEQ ID NO 440] ... 350
KKTDTFFVKLSLFTER [SEQ ID NO 296] ... 451
KKLDTFAVKLSLFTER [SEQ ID NO 404] ... 426

Here's the next entry for you.
Quick note, RAMPO Score for KKLDTFFVKASLFTER [SEQ ID NO 332] landed at 426
